Test system: DMS 273 small cell lung
Method description: NCI tumour cell line growth inhibition, 48 h
Measurement type: TGI

## Task Consider the molecule CC1(C)Cc2c(oc3ncnc(N)c23)CS1 and give its measured TGI.
## Result > 100 µM

## Task Consider the molecule O=C1NC2(CCCCC2)C(=O)N1CCN(CCCl)CCCl and give its measured TGI.
## Result > 223 µM

## Task Consider the molecule O=C(CC1C(=O)Nc2ccccc2S1(=O)=O)Nc1ccc(Cl)cc1 (configuration not stated) and give its measured TGI.
## Result 45.6 µM

## Task Consider the molecule CC(C)OC/N=C(/N)NC#N and give its measured TGI.
## Result > 100 µM

## Task Consider the molecule CC1(C)C(=O)C(C)(C)C1=NNC(N)=S and give its measured TGI.
## Result > 100 µM

## Task Consider the molecule COC(=O)c1c(-c2cc(OC)c(OC)c(OC)c2)oc2ccccc2c1=O and give its measured TGI.
## Result > 100 µM

## Task Consider the molecule c1ccc2c(c1)Cc1c(Cc3csc4ccccc34)ccc3cccc-2c13 and give its measured TGI.
## Result > 100 µM

----------
Would you kindly list TGI for each of these compounds?
Test system: HOP-18 NSCLC
Method description: NCI tumour cell line growth inhibition, 48 h

## Task Consider the compound CCOC(=N)CC(=O)Nc1ccccc1 and give its measured TGI.
## Result > 31.6 µM

## Task Consider the compound CCCCCCCCCCCCCCCC(=O)OCCOCCOCCOCCOCCOC(=O)CCCCCCCCCCCCCCC and give its measured TGI.
## Result > 100 µM

## Task Consider the compound N#C/C(=C1\OC(=N)C(c2ccccc2)C1=O)c1ccccc1 (stereo not given) and give its measured TGI.
## Result 92.3 µM

## Task Consider the compound O=C1NC2(CCCCC2)C(=O)N1CCN(CCCl)CCCl and give its measured TGI.
## Result > 250 µM

## Task Consider the compound Cn1c(=O)cc2[nH]c3ccccc3n2c1=O and give its measured TGI.
## Result > 100 µM

## Task Consider the compound COc1ccc(/C=C/C(=O)c2c(-c3ccccc3)nn(C)c(=O)c2N2CCOCC2)cc1 and give its measured TGI.
## Result > 100 µM

## Task Consider the compound CN(C)CCOc1cc2c(c3ccccc13)-c1ccccc1C2O (stereo not given) and give its measured TGI.
## Result 29.5 µM

## Task Consider the compound O=C(CCC(=O)Nc1cccc(C(F)(F)F)c1)CC(=O)c1ccc2ccccc2c1 and give its measured TGI.
## Result > 100 µM

## Task Consider the compound O=C(N/C(=C\c1ccccc1O)c1nc2ccccc2[nH]1)c1ccccc1 and give its measured TGI.
## Result > 100 µM

## Task Consider the compound CC(C)OC/N=C(/N)NC#N and give its measured TGI.
## Result > 100 µM

----------
Test system: BT-549 breast
Method description: NCI tumour cell line growth inhibition, 48 h
# class assignment by measured TGI: class 1 = under 8 µM, class 2 = from 8 µM up to 30 µM, class 3 = 30 µM and over

## Task Band assignment needed for c1ccc(Cn2c(-c3ccc(-c4ccccc4)cc3)cc3ccccc32)cc1 please.
## Result class 3

## Task Band assignment needed for O=[N+]([O-])c1ccc2sc(/C=N/c3ccccn3)cc2c1 please.
## Result class 3

## Task Band assignment needed for Cc1cn(Cc2cccc(C3=NCCCN3)c2)c(=O)n(Cc2cccc(C3=NCCCN3)c2)c1=O please.
## Result class 3

## Task Band assignment needed for CCOC(=O)c1c(C)nc2c(c1N)/C(=C/c1ccccn1)C(=O)N2Cc1ccccc1 please.
## Result class 1

## Task Band assignment needed for COc1ccc2c(c1)C(OC)C1c3c(cc4c(c3-2)OCO4)CCN1C (stereo not given) please.
## Result class 2

## Task Band assignment needed for COC(=O)c1c(C)c2c(c(C)c1C(=O)OC)-c1c(C)ccc3ccc(C)c-2c13 please.
## Result class 3

## Task Band assignment needed for C#C[C@@]1(O)[C@@H](CO)O[C@@H](n2cc(C(F)(F)F)c3c(N)ncnc32)[C@@H]1O please.
## Result class 1

## Task Band assignment needed for Nc1cc2ncnn2c(SCC(=O)N/N=C/C(Br)=C\c2ccccc2)n1 please.
## Result class 3

## Task Band assignment needed for CCC(C)C1=C(O)[N+]2([O-])Oc3ccc(C4=C(O)C(=O)C(c5ccc(O)cc5)=C(O)C4=O)cc3OC2(C(C)CC)C(=O)N1O (stereo not given) please.
## Result class 3

## Task Band assignment needed for S=C(N/N=C/c1ccccn1)N1CC2CCC(CC2)C1 please.
## Result class 2

## Task Band assignment needed for CCN(CC)CCN1c2nc3ccccc3cc2Sc2cc3ccccc3nc21 please.
## Result class 2

## Task Band assignment needed for CS(=O)(=O)OCCCSCCSCCCOS(C)(=O)=O please.
## Result class 3

## Task Band assignment needed for COc1cc2c(c(OC)c1OC)-c1ccc(SC)c(=O)cc1[C@@H](NC(=O)C(F)(F)F)CC2 please.
## Result class 3

## Task Band assignment needed for c1ccc(-c2c(-c3cccs3)[nH]c(-c3cccs3)c2-c2ccccn2)nc1 please.
## Result class 3

## Task Band assignment needed for CC(=O)Nc1cc2cc(NS(=O)(=O)c3ccc(Cl)c(Cl)c3)ccc2oc1=O please.
## Result class 3

## Task Band assignment needed for COc1cc2ncnc(Nc3ccc(Oc4ccnc(C)c4)c(C)c3)c2cc1NC(=O)CC1CCSS1 (stereo not given) please.
## Result class 1

## Task Band assignment needed for Cc1ccc(S(=O)(=O)N/N=C2\CCCCCCCCCCC2CN(C)C)cc1 (stereo not given) please.
## Result class 3

## Task Band assignment needed for Nc1ncc(-c2ccc3ncnc(N4CCc5ccc(Cl)cc54)c3c2)cc1C(F)(F)F please.
## Result class 2

## Task Band assignment needed for CC(C)OC(=O)[C@H]1ON2O[C@H](O[C@@H]3CCCC[C@H]3c3ccccc3)C([Si](C)(C)c3ccccc3)[C@H]3OC(=O)[C@@H]1C32 (stereo not given in full) please.
## Result class 3
